src = ChEMBL document CHEMBL1127048

Assay: In vitro agonist activity at kappa opioid receptor in rabbit vas deferens.
QUANTITY MEASURED: IC50 (nM)
Give the value, in units of nM, as a plain number.

Input O=C(Cc1ccc(Cl)c(Cl)c1)N1CCC2(CC1CN1CCCC1)OCCO2 (stereo unspecified) . Output IC50: 0.1
